TEST_TARGET: T1, human GPVI-Fc fusion protein (human, UniProt Q9HCN6 21-267, limits assumed)
T1 construct: also called human GPVI protein antigen
T1 sequence (looked up): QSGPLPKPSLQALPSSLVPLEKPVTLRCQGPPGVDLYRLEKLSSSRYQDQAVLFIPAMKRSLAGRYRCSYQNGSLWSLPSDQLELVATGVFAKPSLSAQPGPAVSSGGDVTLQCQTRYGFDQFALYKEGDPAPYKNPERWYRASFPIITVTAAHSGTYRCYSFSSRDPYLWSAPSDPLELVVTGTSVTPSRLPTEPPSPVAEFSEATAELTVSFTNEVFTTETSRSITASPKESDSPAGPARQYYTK
PROTOCOL_NOTES: BLI (Octet), GPVI-Fc on biosensor, 1:1 fit
Exercise: for every item that follows, state its recorded pKd.
Numbers only, as −log10 of the molar value.

Give pKd for each listed item.
1. HC1 LC3 humanized Fab (Fab, V domains shown, also called VH1:VL3) VH: QVQLQESGPGLVKPSETLSLTCTASGFSLTSYGVTWIRQPPGKGLEWIGVIWGDGSTNYHSGLRSRVTISVDTSKSQFSLKLSSVTAADTAVYYCAKPIYYDFDDDAMDYWGQGTLVTVSS VL: DIQLTQSPSTLSASVGDRVTITCKASQNVGTYVAWYQQKPGKAPKLLIYSASYRCSGVPSRFSGSGSGTEFTLTISSLQPDDFTTYYCHQYNNYPLTFGQGTKVEIKR
2. HC3 LC4 humanized Fab (Fab, V domains shown, also called VH3:VL4) VH: QVQLVESGGGVVQPGRSLRLSCVASGFSLTSYGVTWVRQAPGKGLEWVAVIWGDGSTNYHSGLRSRFTISRDNSKNTMFLQMNSLRADDTAVYYCAKPIYYDFDDDAMDYWGQGTLVTVSS VL: DIVMTQSPATLSLSPGDRATLSCKASQNVGTYVAWYQQKPGQAPRLLIYSASYRCSGIPARFSGSGSGTDFTLTISSLQSEDFAVYYCHQYNNYPLTFGGGTKVEIKR

Marked response:
1: 9.55; 2: 9.37
